Collected Residual rate values appear next to each entry.
assay: Evaluation of conversion rate to active form in buffer solution (Experimental Example 1); assay type: physicochemical; conditions: pH6.5, 3 hr, 37° C., 25 umol/L in buffer solution
Just the number in %, nothing appended.

Field: example entries. Status: answers known.
Task: Fill in Residual rate for record CN1CC[C@H](c2c(OC(=O)N(C)C[C@@H]3CCCCN3)cc(O)c3c(=O)cc(-c4ccccc4Cl)oc23)[C@H](O)C1 [Example 3]
Result: 53.9

Task: Fill in Residual rate for record CN1CC[C@H](c2c(OC(=O)N(Cc3ccccc3)CC3CCCCN3)cc(O)c3c(=O)cc(-c4ccccc4Cl)oc23)[C@H](O)C1 (stereo partly drawn) [Example 15]
Result: 24.3

Further cases:
Task: Fill in Residual rate for record CCNC(=O)Oc1cc(O)c2c(=O)cc(-c3ccccc3Cl)oc2c1[C@H]1CCN(C)C[C@H]1O [Comparative Example 1, reference compound]
Result: 0.8

----------
assay: Evaluation of conversion rate to active form in buffer solution (Experimental Example 1); type: physicochemical; settings: pH5.0, 2 hr, 37° C., 25 umol/L in buffer solution
Structures can show the parent of a compound that is named as a salt.
MEASURED ATTRIBUTE: Residual rate (%)
Just the number in %, nothing appended.

Field: example entries. Status: answers known.
Task: Fill in Residual rate for record CCCN(CC1CCCCN1)C(=O)Oc1cc(O)c2c(=O)cc(-c3ccccc3Cl)oc2c1[C@H]1CCN(C)C[C@H]1O (some centres unmarked) [Example 9]
Result: 94.9

Task: Fill in Residual rate for record CCCN(C[C@@H]1CCCCN1)C(=O)Oc1cc(O)c2c(=O)cc(-c3ccccc3Cl)oc2c1[C@H]1CCN(C)C[C@H]1O [Example 5]
Result: 96.7

Further cases:
Task: Fill in Residual rate for record CN1CC[C@H](c2c(OC(=O)N(C)CC3CCCCN3)cc(O)c3c(=O)cc(-c4ccccc4Cl)oc23)[C@H](O)C1 (some centres unmarked) [Example 8]
Result: 94.7

Task: Fill in Residual rate for record CN1CC[C@H](c2c(OC(=O)N(C)C[C@H]3CCCCN3)cc(O)c3c(=O)cc(-c4ccccc4Cl)oc23)[C@H](O)C1 [Example 4]
Result: 96.8

Task: Fill in Residual rate for record CCN(C[C@H]1CCCCN1)C(=O)Oc1cc(O)c2c(=O)cc(-c3ccccc3Cl)oc2c1[C@H]1CCN(C)C[C@H]1O [Example 2]
Result: 94.7

Task: Fill in Residual rate for record CCNC(=O)Oc1cc(O)c2c(=O)cc(-c3ccccc3Cl)oc2c1[C@H]1CCN(C)C[C@H]1O [Comparative Example 1, reference compound]
Result: 17.9

Task: Fill in Residual rate for record CCN(CCC1CCCCN1)C(=O)Oc1cc(O)c2c(=O)cc(-c3ccccc3Cl)oc2c1[C@H]1CCN(C)C[C@H]1O (some centres unmarked) [Example 16]
Result: 86.1

Task: Fill in Residual rate for record CN1CC[C@H](c2c(OC(=O)N(Cc3ccccc3)CC3CCCCN3)cc(O)c3c(=O)cc(-c4ccccc4Cl)oc23)[C@H](O)C1 (some centres unmarked) [Example 15]
Result: 93.5

Task: Fill in Residual rate for record CN1CC[C@H](c2c(OC(=O)N(CCF)CC3CCCCN3)cc(O)c3c(=O)cc(-c4ccccc4Cl)oc23)[C@H](O)C1 (some centres unmarked) [Example 11]
Result: 80.5

Task: Fill in Residual rate for record CC(C)N(CC1CCCCN1)C(=O)Oc1cc(O)c2c(=O)cc(-c3ccccc3Cl)oc2c1[C@H]1CCN(C)C[C@H]1O (some centres unmarked) [Example 10]
Result: 90.1

Task: Fill in Residual rate for record CN1CC[C@H](c2c(OC(=O)N(C)C[C@@H]3CCCCN3)cc(O)c3c(=O)cc(-c4ccccc4Cl)oc23)[C@H](O)C1 [Example 3]
Result: 97.8

Task: Fill in Residual rate for record COCCN(CC1CCCCN1)C(=O)Oc1cc(O)c2c(=O)cc(-c3ccccc3Cl)oc2c1[C@H]1CCN(C)C[C@H]1O (some centres unmarked) [Example 12]
Result: 79.6

Task: Fill in Residual rate for record CCCN(C[C@H]1CCCCN1)C(=O)Oc1cc(O)c2c(=O)cc(-c3ccccc3Cl)oc2c1[C@H]1CCN(C)C[C@H]1O [Example 6]
Result: 97.8

Task: Fill in Residual rate for record CN1CC[C@H](c2c(OC(=O)N(CCCC(F)(F)F)CC3CCCCN3)cc(O)c3c(=O)cc(-c4ccccc4Cl)oc23)[C@H](O)C1 (some centres unmarked) [Example 14]
Result: 51.0

Task: Fill in Residual rate for record CCN(C[C@@H]1CCCCN1)C(=O)Oc1cc(O)c2c(=O)cc(-c3ccccc3Cl)oc2c1[C@H]1CCN(C)C[C@H]1O [Example 1, ditrifluoroacetate]
Result: 97.4

Task: Fill in Residual rate for record CN1CC[C@H](c2c(OC(=O)N(CCC(F)(F)F)CC3CCCCN3)cc(O)c3c(=O)cc(-c4ccccc4Cl)oc23)[C@H](O)C1 (some centres unmarked) [Example 13]
Result: 78.0

Task: Fill in Residual rate for record CCN(CC1CCCCN1)C(=O)Oc1cc(O)c2c(=O)cc(-c3ccccc3Cl)oc2c1[C@H]1CCN(C)C[C@H]1O (some centres unmarked) [Example 7, dihydrochloride]
Result: 98.5
